- experiment-notes: NCI Yeast Anticancer Drug Screen. Data for the mec2-1 strain (AID 157)
- condition-description: S. cerevisiae mec2-1 strain, at 5.0 µM (retest, dose inferred, filed as 0.5), stronger effect = higher value
About 79,000 compounds went through this panel and 15% of them were active in at least one assay; those are over-represented in the sample as a whole.
Overview of reported growth inhibition across a group of compounds:

>  <given-smiles>
CCN(CC)CCNC(=O)c1ccc2c(c1O)C(=O)c1ccccc1C2=O

>  <u>
%

>  <growth inhibition>
27

$$$$
>  <given-smiles>
O=C(CCCO)N/N=C\c1ccc([N+](=O)[O-])s1

>  <u>
%

>  <growth inhibition>
-7

$$$$
>  <given-smiles>
CCOC(=O)Cc1cc(=O)oc2c(CN3CCN(c4ccc(C)cc4)CC3)c(O)ccc12

>  <u>
%

>  <growth inhibition>
3

$$$$
>  <given-smiles>
CCCN(CCC)Cc1cc2c(cc1O)CC[C@@H]1[C@@H]2CC[C@]2(C)C(=O)CC[C@@H]12

>  <u>
%

>  <growth inhibition>
100

$$$$
>  <given-smiles>
Cc1cc(C(=O)CBr)c(CN2C(=O)c3ccccc3C2=O)c(=O)n1C

>  <u>
%

>  <growth inhibition>
49

$$$$
>  <given-smiles>
Cc1cc(=O)c2cc(N=Cc3ccc([N+](=O)[O-])o3)ccc2o1

>  <u>
%

>  <growth inhibition>
-10

$$$$
>  <given-smiles>
COc1cc(Cc2n[nH]c(=S)n2-c2ccccc2)c(S(=O)(=O)N2CCOCC2)cc1OC

>  <u>
%

>  <growth inhibition>
-2

$$$$
>  <given-smiles>
Cc1ccc2c(c1)-c1cc(C)ccc1C2(O)c1ccccc1

>  <u>
%

>  <growth inhibition>
14

$$$$
>  <given-smiles>
CCOC(=O)C1=C(C)NC(C)=C(C(=O)OCC)C1c1ccc([N+](=O)[O-])s1

>  <u>
%

>  <growth inhibition>
35

$$$$
>  <given-smiles>
CCN(CC)Cc1ccc(Nc2cc(C)nc(/N=C(\N)Nc3ccc(Cl)c(Cl)c3)n2)cc1

>  <u>
%

>  <growth inhibition>
55

$$$$

====

Overview of reported growth inhibition across a group of molecules:
- experiment-notes: NCI Yeast Anticancer Drug Screen. Data for the mlh1 rad18 strain (AID 175)
- condition-description: S. cerevisiae mlh1 rad18 strain growth inhibition; at 50.0 µM; stronger effect = higher value
The panel holds about 79,000 compounds, 15% with a hit somewhere; the sample as a whole holds those more often.
measurement-label: growth inhibition (%)

>  <molecule>
C=CCN1CCC(OC(=O)C(O)(C#CC)C2CCCC2)CC1 (configuration not stated)

>  <measured-number>
64

$$$$
>  <molecule>
Cn1c(=O)ccc2cc(C(=O)c3ccccc3)ccc21

>  <measured-number>
65.7

$$$$
>  <molecule>
O=[N+]([O-])c1ccc(N2CCCC(n3cccc3)C2)c([N+](=O)[O-])c1 (configuration not stated)

>  <measured-number>
48.5

$$$$
>  <molecule>
CCC(CC)C(=O)O.[Ag]

>  <measured-number>
99.2

$$$$
>  <molecule>
COc1ccc(C(=O)CC(=O)c2ccccc2)cc1

>  <measured-number>
14.1

$$$$
>  <molecule>
CCN(CC)CCCCCCNc1cc(C)cc2cccnc12

>  <measured-number>
59.6

$$$$
>  <molecule>
CC/C(=N\OC(=O)Nc1ccccc1)c1ccc(OC(=O)Nc2ccccc2)cc1

>  <measured-number>
76.1

$$$$
>  <molecule>
FC(F)(F)c1cccc(Nc2ccc3cnc4ccccc4c3c2)c1

>  <measured-number>
93.3

$$$$
>  <molecule>
CCC(=O)Oc1c(Cl)cc(Cl)c(Cl)c1Cl

>  <measured-number>
74.3

$$$$
>  <molecule>
O=C(c1ccccc1)c1ccc2cccc(O)c2n1

>  <measured-number>
89.4

$$$$
>  <molecule>
c1ccc2c(c1)oc1cc3ccncc3cc12

>  <measured-number>
95.2

$$$$
>  <molecule>
C=C(C)C1(C(=O)OCC(Cl)(Cl)Cl)NC(=O)C(NC(=O)COc2ccccc2)=CO1 (configuration not stated)

>  <measured-number>
93

$$$$
>  <molecule>
CCc1cc2c(c3[nH]ccc13)[C@@H](C)C[C@H]2C

>  <measured-number>
88.5

$$$$
>  <molecule>
CC1=C(C#N)C(=O)N(C)C(=O)C1(Cl)Cl

>  <measured-number>
9.45

$$$$
>  <molecule>
O=[N+]([O-])C(=C(Nc1ccccc1)Nc1ccccc1)C(Cl)=C(Cl)Cl

>  <measured-number>
85.7

$$$$
>  <molecule>
C1CCC(CCNCCC2CCCCC2)CC1

>  <measured-number>
98.7

$$$$
>  <molecule>
CCOC(=O)Cn1c(=O)c2nc(SC)sc2n(-c2ccc(C)cc2)c1=S

>  <measured-number>
-19

$$$$
>  <molecule>
O=C1/C(=C(/Br)I)c2ccccc2-c2ccccc21

>  <measured-number>
59

$$$$
>  <molecule>
COc1ccc2c(c1)S(=O)(=O)C(c1ccccc1)=CC2=O

>  <measured-number>
99

$$$$
>  <molecule>
COc1ccccc1/C=N/Nc1nnc(N/N=C/c2ccccc2OC)c2ccccc12

>  <measured-number>
93.4

$$$$
>  <molecule>
Nc1ccc(C(=O)NN2C(=O)C(Cl)C2c2cc(Br)cc(Br)c2O)cc1 (configuration not stated)

>  <measured-number>
94.7

$$$$
>  <molecule>
Cc1cccc(N2C(c3ccccc3)c3ccc(C)cc3NS2=O)c1 (configuration not stated)

>  <measured-number>
99.2

$$$$
>  <molecule>
CC#CC#C/C=C1/C=CC(=O)O1

>  <measured-number>
75

$$$$
>  <molecule>
C=CCCCN1C(=O)C2C3c4ccccc4C(C=O)(c4ccccc43)C2C1=O (configuration not stated)

>  <measured-number>
3.25

$$$$
>  <molecule>
CCOC(=O)/C(=C\c1cccc(Br)c1)C(C)=O

>  <measured-number>
92.5

$$$$
>  <molecule>
CCN(CC)C(=S)N/N=C(\C)c1cccc(C)n1

>  <measured-number>
85.8

$$$$
>  <molecule>
CC(c1ccccc1)[P+](c1ccccc1)(c1ccccc1)c1ccccc1 (configuration not stated)

>  <measured-number>
98

$$$$
>  <molecule>
O=[N+]([O-])c1ccc(CC(c2ccc([N+](=O)[O-])cc2)(c2ccc([N+](=O)[O-])cc2)c2ccc([N+](=O)[O-])cc2)cc1

>  <measured-number>
26.9

$$$$
>  <molecule>
CC(=O)c1cccc([N+](=O)[O-])c1

>  <measured-number>
9

$$$$
>  <molecule>
Oc1ccc(C(O)(c2ccccc2)c2ccccc2)c2ccccc12

>  <measured-number>
97.5

$$$$
>  <molecule>
[O-]/[N+]1=[N+](\[O-])c2ccccc2CCc2ccccc21

>  <measured-number>
1.6

$$$$
>  <molecule>
CCCOC(=O)CSC#N

>  <measured-number>
98

$$$$
>  <molecule>
CCCCCN(CCCCC)C(C)C(=O)c1ccc2cc(Br)c3ccccc3c2c1 (configuration not stated)

>  <measured-number>
95.5

$$$$
>  <molecule>
C/C(=N\NC(=S)N(C)C)c1cccc(C)n1

>  <measured-number>
99.3

$$$$
>  <molecule>
O=C(NC(=Nc1ccccc1)SCCSC(=Nc1ccccc1)NC(=O)c1ccccc1)c1ccccc1

>  <measured-number>
78

$$$$
>  <molecule>
CC(=O)Oc1c(C)cc(C)cc1Cc1cc(C(C)=O)cc(Cc2cc(C)cc(C)c2OC(C)=O)c1OC(C)=O

>  <measured-number>
92.5

$$$$
>  <molecule>
Clc1ccc(COC(CN2CCOCC2)c2ccccc2)c(Cl)c1 (configuration not stated)

>  <measured-number>
97.6

$$$$
>  <molecule>
Cn1cc(CCC(=O)C2C=CC=CC2=NC(=O)CCCl)c2ccccc21 (configuration not stated)

>  <measured-number>
-17.1

$$$$
>  <molecule>
O=C(c1ccccc1)N(C(=S)N(C(=O)c1ccccc1)c1ccccc1)c1ccccc1

>  <measured-number>
99.1

$$$$
>  <molecule>
CSC(SC)C(SC)SC

>  <measured-number>
-1.15

$$$$
>  <molecule>
CC(C(=O)c1ccc(Cl)cc1)C1OC(=O)C(Cl)=C1Cl (configuration not stated)

>  <measured-number>
91.7

$$$$
>  <molecule>
Cc1ccc(Nc2nc3nc[nH]c3c(=O)[nH]2)cc1CO

>  <measured-number>
4.8

$$$$
>  <molecule>
Cc1c2ccccc2c(C)n2c1nc1cc(Cl)c(Cl)cc12

>  <measured-number>
85.6

$$$$
>  <molecule>
COc1c([N+](=O)[O-])cc(-c2ccccc2)cc1[N+](=O)[O-]

>  <measured-number>
83.2

$$$$
>  <molecule>
CCC(C)N(C(=O)c1ccccc1)c1ccccc1 (configuration not stated)

>  <measured-number>
-3.65

$$$$
>  <molecule>
C\C=C/C=C/C=C/C(=O)O

>  <measured-number>
45

$$$$
>  <molecule>
O=[N+]([O-])c1ccc(C(Cl)Cc2ccc(Cl)cc2)cc1 (configuration not stated)

>  <measured-number>
89.1

$$$$
